measured.target: butyrylcholinesterase (BChE) (Equus caballus, UniProt P81908)
Construct: butyrylcholinesterase (BChE, E.C. from equine serum); purchased Sigma Aldrich (St. Louis, MO, USA); host or cells: equine serum
Sequence (P81908 whole entry): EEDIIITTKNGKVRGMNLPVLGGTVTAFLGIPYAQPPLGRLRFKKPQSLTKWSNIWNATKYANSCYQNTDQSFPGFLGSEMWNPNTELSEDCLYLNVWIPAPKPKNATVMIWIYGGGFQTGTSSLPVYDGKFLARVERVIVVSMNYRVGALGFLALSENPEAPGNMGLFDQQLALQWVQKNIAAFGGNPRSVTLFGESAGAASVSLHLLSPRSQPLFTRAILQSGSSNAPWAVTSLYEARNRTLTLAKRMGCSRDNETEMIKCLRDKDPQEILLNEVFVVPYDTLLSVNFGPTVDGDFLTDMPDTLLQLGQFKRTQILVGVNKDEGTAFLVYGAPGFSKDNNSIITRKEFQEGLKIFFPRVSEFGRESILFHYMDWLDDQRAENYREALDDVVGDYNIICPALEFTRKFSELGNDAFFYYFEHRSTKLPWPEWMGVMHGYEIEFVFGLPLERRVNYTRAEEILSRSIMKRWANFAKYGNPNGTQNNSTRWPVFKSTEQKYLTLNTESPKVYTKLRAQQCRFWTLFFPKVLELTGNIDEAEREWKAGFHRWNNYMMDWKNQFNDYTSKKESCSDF
assay: biochemical
Parameters: species or system equine
condition.description: BChE IC50 (μM)
measured.parameter: log10 of IC50 (log10 of the value in µM)
Note: values are log10 of IC50 expressed in µM.

(Q) Provide measured log10 of IC50 on butyrylcholinesterase (BChE) (Equus caballus, UniProt P81908) for CN(C)C(=O)Oc1ccc(F)cc1/C=C/c1cccs1 [Compound 3] please.
(A) 0.17

(Q) Recall the reported log10 of IC50 of COc1ccc(/C=C/c2cccs2)c(OC(=O)N(C)C)c1 [Compound 6] on butyrylcholinesterase (BChE) (Equus caballus, UniProt P81908) and write it down.
(A) -0.05

(Q) Find log10 of IC50 for CN(C)C(=O)Oc1cccc(/C=C/c2cccs2)c1 [Compound 11] on butyrylcholinesterase (BChE) (Equus caballus, UniProt P81908) and write it down.
(A) 1.06

(Q) Give log10 of IC50 for Cc1cnc(/C=C/c2cc(F)ccc2OC(=O)N(C)C)s1 [Compound 12] tested on butyrylcholinesterase (BChE) (Equus caballus, UniProt P81908).
(A) 1.37

(Q) Quote butyrylcholinesterase (BChE) (Equus caballus, UniProt P81908) log10 of IC50 for entry Cc1ccc(/C=C/c2cc(F)ccc2OC(=O)N(C)C)s1 [Compound 9] .
(A) 1.18

(Q) Report value only: log10 of IC50, butyrylcholinesterase (BChE) (Equus caballus, UniProt P81908), Cc1ccc(OC(=O)N(C)C)c(/C=C/c2ccc(C)s2)c1 [Compound 8]
(A) 1.41

(Q) For butyrylcholinesterase (BChE) (Equus caballus, UniProt P81908), give log10 of IC50 of the listed compound: Cc1ccc(/C=C/c2ccccc2OC(=O)N(C)C)s1 [Compound 7]
(A) -0.42

(Q) Recall the reported log10 of IC50 of Cc1ccc(OC(=O)N(C)C)c(/C=C/c2cccs2)c1 [Compound 2] when tested on butyrylcholinesterase (BChE) (Equus caballus, UniProt P81908).
(A) 0.02

(Q) Please respond with reported log10 of IC50 (system butyrylcholinesterase (BChE) (Equus caballus, UniProt P81908)) for CN(C)C(=O)Oc1ccc(Cl)cc1/C=C/c1cccs1 [Compound 4] .
(A) 0.45

(Q) Report log10 of IC50 from butyrylcholinesterase (BChE) (Equus caballus, UniProt P81908) testing of COc1ccc(OC(=O)N(C)C)c(/C=C/c2cccs2)c1 [Compound 5]
(A) 1.06
